test system: Vero E6 infected with SARS-CoV-2; assay: SARS-CoV-2 infection rate relative to infected DMSO; higher = more infection, active = 60 or less; details: 24 h
reported property: SARS-CoV-2 infection rate (%)
Quick reminder: number only, in %, skip the unit.

query: Dear colleague, I am looking for the recorded SARS-CoV-2 infection rate of the following compound: COC(=O)[C@@H]1[C@H]2C[C@H]3c4[nH]c5ccccc5c4CCN3C[C@@H]2CC[C@@H]1O [yohimbine] (10 µM)
result: 109

query: Looking for the measured SARS-CoV-2 infection rate of Cn1cc(C2=C(c3cn(C4CCN(Cc5ccccn5)CC4)c4ccccc34)C(=O)NC2=O)c2ccccc21 [enzastaurin] (10 µM) , can you help?
result: 112

query: Any idea what its SARS-CoV-2 infection rate is? The compound is N=C1N[C@H]2[C@H](CS[C@H]2CCCCC(=O)O)N1 [2-iminobiotin] (10 µM)
result: 99

query: Query (compound): CCOCC(O)COc1ccc(NC(=O)CC[S+](C)C)cc1 (stereo not drawn) [suplatast] (10 µM) ; field requested: SARS-CoV-2 infection rate
result: 102

query: Returns the measured SARS-CoV-2 infection rate for the input compound. Input: C[N+](C)(C)CC#CCN1CCCC1=O [oxotremorine-M] (10 µM)
result: 89.5

query: Look up SARS-CoV-2 infection rate: NC(=O)c1cc([N+](=O)[O-])cc([N+](=O)[O-])c1 [nitromide] (10 µM)
result: 83.5

query: Entry [Cl][Ti][Cl].c1cc[cH-]c1.c1cc[cH-]c1 [titanocene-dichloride] (10 µM) has what SARS-CoV-2 infection rate?
result: 84

query: // returns reported SARS-CoV-2 infection rate for input c1ccc(Cn2c(N3CCNCC3)nc3ccccc32)cc1 [lerisetron] (10 µM)
result: 100

query: GET /values?readout=SARS-CoV-2 infection rate&item= CNC(=O)O[C@H]1COc2ccc(N3CCN(C4COC4)CC3)cc2[C@@H]1NC(=O)c1ccc(F)cc1 (10 µM)
result: 95.5

query: Need SARS-CoV-2 infection rate of Cc1ccc2c(c1)=C(c1ccccc1)C(C1=NN(C(=O)CCC(=O)O)C(c3ccc(Br)cc3)C1)C(=O)N=2 (stereo not drawn) (10 µM) , thanks.
result: 104

query: Query (compound): O=C1C(=Cc2cccnc2)C(=O)c2ccccc21 (10 µM) ; field requested: SARS-CoV-2 infection rate
result: 99

query: Consider the compound shown here: N[C@@H](Cc1cc(CP(=O)(O)O)cc(-c2ccccc2Cl)c1)C(=O)O (10 µM) What is its recorded SARS-CoV-2 infection rate?
result: 97.5

query: Name the recorded SARS-CoV-2 infection rate for CCCC(=O)O[C@]1(C(=O)CCl)[C@@H](C)C[C@H]2[C@@H]3CCC4=CC(=O)C=C[C@]4(C)[C@@]3(F)C(=O)C[C@@]21C [clobetasone-butyrate] (10 µM) .
result: 96

query: Look at this compound and give its reported SARS-CoV-2 infection rate. Cc1[nH]c(/C=C2\C(=O)Nc3ccc(F)cc32)c(C)c1C(=O)NCCN1CCCC1 [toceranib] (0.833333 µM)
result: 26

query: # SARS-CoV-2 infection rate lookup, item N[C@]1(C(=O)O)CC[C@@H](C(=O)O)C1 (10 µM)
result: 82

query: Please give the measured SARS-CoV-2 infection rate for this compound: COc1cc(/C=C/C(=O)N2CCN(CC(=O)N3CCCC3)CC2)cc(OC)c1OC [cinepazide] (10 µM)
result: 108

query: Entry CC(C)NCC(O)c1ccc([N+](=O)[O-])cc1 (stereo not drawn) [nifenalol] (10 µM) : reported SARS-CoV-2 infection rate = ?
result: 118

query: What value of SARS-CoV-2 infection rate has been reported for the following compound? COc1cc([C@@H]2c3cc4c(cc3[C@@H](O[C@@H]3O[C@@H]5CO[C@@H](C)O[C@H]5[C@H](O)[C@H]3O)[C@H]3COC(=O)[C@H]23)OCO4)cc(OC)c1OP(=O)(O)O [etoposide-phosphate] (10 µM)
result: 94.5

query: Item CCO[C@@H](Cc1ccc(OCCn2c(C)ccc2-c2ccc(SC)cc2)cc1)C(=O)O [saroglitazar] (10 µM) has what recorded SARS-CoV-2 infection rate?
result: 92

query: // returns reported SARS-CoV-2 infection rate for input CNC[C@H](O)[C@@H](O)[C@H](O)[C@H](O)CO [meglumine] (10 µM)
result: 104

query: Would you kindly share the measured SARS-CoV-2 infection rate for CN(C)CC[C@@](O)(c1ccccc1)c1ccccc1Cl [clofedanol] (10 µM) ?
result: 110

query: Value lookup for SARS-CoV-2 infection rate; key = c1ccc(CCCCN2CCC(c3ccccc3)CC2)cc1 (10 µM)
result: 73.5

query: Item O=C(C1CCCCC1)N1CC(=O)N2CCc3ccccc3C2C1 (stereo not drawn) [praziquantel] (10 µM) has what recorded SARS-CoV-2 infection rate?
result: 106

query: State the recorded SARS-CoV-2 infection rate for this entry: COc1cccc(Nc2c(C(N)=O)cnc3c(C)cc(S(=O)(=O)c4cccc(C(=O)N(C)C)c4)cc23)c1 (10 µM)
result: 91

query: I would be grateful if you could share the reported SARS-CoV-2 infection rate for O=C(Nc1ccc(N2CCC(C(=O)N3CCOCC3)CC2)cc1)c1cnc(Oc2ccccc2)nc1 (10 µM) .
result: 114

query: Any idea what SARS-CoV-2 infection rate was measured for CCOC(=O)[C@H]1O[C@@H]1C(=O)N[C@@H](CC(C)C)C(=O)NCCC(C)C [aloxistatin] (10 µM) ?
result: 90

query: # query: SARS-CoV-2 infection rate of entry COC1=CC(=O)C[C@@H](C)[C@]12Oc1c(Cl)c(OC)cc(OC)c1C2=O [griseofulvin] (10 µM)
result: 104

query: Which value of SARS-CoV-2 infection rate has been reported for CC(C)=CCC/C(C)=C/CNCCNC1C2CC3CC(C2)CC1C3 (stereo not drawn) (10 µM) in the records?
result: 94.5

query: Report SARS-CoV-2 infection rate for Cc1nc(-c2ccc(OCC(C)C)c(C#N)c2)sc1C(=O)O [febuxostat] (10 µM) please.
result: 118

query: Entry CC(C)NCC(O)c1cc(O)cc(O)c1 (stereo not drawn) [metaproterenol] (10 µM) : reported SARS-CoV-2 infection rate = ?
result: 104

query: Which SARS-CoV-2 infection rate value is on record for CO/N=C(\C(=O)N[C@@H]1C(=O)N2C(C(=O)[O-])=C(C[N+]3(C)CCCC3)CS[C@H]12)c1csc(N)n1 [cefepime] (10 µM) ?
result: 114

query: I would be grateful if you could share the reported SARS-CoV-2 infection rate for COc1ccc(C(=O)Nc2sc3c(c2C(N)=O)CCCC3)cc1OC (10 µM) .
result: 96.5

query: Which SARS-CoV-2 infection rate is listed for CNCCc1ccc(O)c(O)c1 [deoxyepinephrine] (10 µM) ?
result: 106

----------
tested on: Vero E6 infected with SARS-CoV-2; assay: inhibition of SARS-CoV-2 cytopathic effect; higher = more antiviral protection, active = above 15; conditions: 8.33 nM; 48 h
Field: inhibition of SARS-CoV-2 cytopathic effect. Provide a value for each of the compounds that follow.
Numbers only; they are read as %.

query: Lab note: need inhibition of SARS-CoV-2 cytopathic effect with Vero E6 infected with SARS-CoV-2 for entry Cc1cc(N)c2ccccc2[n+]1CCCCCCCCCC[n+]1c(C)cc(N)c2ccccc21 , please look it up.
result: 2.58

query: Test system Vero E6 infected with SARS-CoV-2; read-out inhibition of SARS-CoV-2 cytopathic effect; what value for COC(=O)c1cc(OC)c2c(c1-c1c(CO)cc(OC)c3c1OCO3)OCO2 ?
result: 1.38

query: For the record CCC(CC)CC1(C(=O)Nc2ccccc2SC(=O)C(C)C)CCCCC1 , what value of inhibition of SARS-CoV-2 cytopathic effect is listed for Vero E6 infected with SARS-CoV-2?
result: -0.46

query: GET /values?readout=inhibition of SARS-CoV-2 cytopathic effect&system=Vero E6 infected with SARS-CoV-2&item= Cc1cn([C@H]2C[C@H](N=[N+]=[N-])[C@@H](CO)O2)c(=O)[nH]c1=O
result: 3.15

query: Report inhibition of SARS-CoV-2 cytopathic effect for CNc1cc(OC)c(C(=O)NC2CCN(Cc3ccccc3)C2C)cc1Cl (stereo not drawn) [nemonapride] tested on Vero E6 infected with SARS-CoV-2.
result: 2.19

query: # value lookup — system Vero E6 infected with SARS-CoV-2, readout inhibition of SARS-CoV-2 cytopathic effect, item CO[C@@]1(NC(=O)C2SC(=C(C(N)=O)C(=O)O)S2)C(=O)N2C(C(=O)O)=C(CSc3nnnn3C)CS[C@@H]21 (stereo partly drawn)
result: 1.11

query: Item COc1ccc(CC2NCCc3cc(OC)c(OC)cc32)cc1OC (stereo not drawn) [tetrahydropapaverine] with Vero E6 infected with SARS-CoV-2 - inhibition of SARS-CoV-2 cytopathic effect?
result: 0.89

query: Hello, I am looking for reported inhibition of SARS-CoV-2 cytopathic effect with Vero E6 infected with SARS-CoV-2 for O=C(O)c1cc(O)c2c(c1)C(=O)c1cccc(O)c1C2=O . Could you help?
result: -0.35
